src = the Immune Epitope Database (IEDB)

# Target system: HLA-A*29:02
# Assay explanation: IEDB peptide-MHC binding, purified MHC/competitive/fluorescence; filed as Kd, often an IC50 or EC50 that approximates it; bounds were set here for any values at or beyond the usual limits of such assays
# Condition notes: source organism: Giardia lamblia ATCC 50803
Readout type: Kd

For record AILAGEHKC the listed Kd is ≥ 20 µM

* * *

# Target system: HLA-B*53:01
# Assay explanation: IEDB peptide-MHC binding, purified MHC/competitive/radioactivity; filed as Kd, often an IC50 or EC50 that approximates it; bounds were set here for any values at or beyond the usual limits of such assays
# Condition notes: source organism: Mammarenavirus guanaritoense
Readout type: pKd
Please note pKd is a logarithmic value: minus log10 of concentration in mol/L. Answer with that number alone.

For record KPINLSNSV the listed pKd is 5.94

* * *

# Target system: HLA-B*15:01
# Assay explanation: IEDB peptide-MHC binding, purified MHC/competitive/fluorescence; filed as Kd, often an IC50 or EC50 that approximates it; bounds were set here for any values at or beyond the usual limits of such assays
# Condition notes: source organism: Bacillus cereus ATCC 4342
pKd: −log10 of the molar value.
Readout type: pKd

For record GLFWGGIWY the listed pKd is ≤ 4.70

* * *

# Target system: HLA-B*53:01
# Assay explanation: IEDB peptide-MHC binding, purified MHC/competitive/radioactivity; filed as Kd, often an IC50 or EC50 that approximates it; bounds were set here for any values at or beyond the usual limits of such assays
# Condition notes: source organism: Dengue virus 2 Peru/IQT2913/1996
Readout type: Kd (nM)
Your answer is read as nM, so omit the unit and give the number.

For record IPTVMAFHL the listed Kd is 48.9

* * *

# Target system: HLA-B*51:01
# Assay explanation: IEDB peptide-MHC binding, purified MHC/competitive/fluorescence; bounds were set here for any values at or beyond the usual limits of such assays
# Condition notes: source organism: Ateles geoffroyi
Readout type: IC50 (nM)
Your answer is read as nM, so omit the unit and give the number.

For record LPADPASVL the listed IC50 is 1620

* * *

# Target system: HLA-A*26:01
# Assay explanation: IEDB peptide-MHC binding, purified MHC/direct/fluorescence; filed as Kd, often an IC50 or EC50 that approximates it; bounds were set here for any values at or beyond the usual limits of such assays
# Condition notes: source organism: SARS-CoV1
Readout type: pKd
Please note pKd is a logarithmic value: minus log10 of concentration in mol/L. Answer with that number alone.

For record FADINGKLY the listed pKd is 6.25

* * *

# Target system: HLA-B*40:01
# Assay explanation: IEDB peptide-MHC binding, purified MHC/competitive/radioactivity; filed as Kd, often an IC50 or EC50 that approximates it; bounds were set here for any values at or beyond the usual limits of such assays
# Condition notes: source organism: Lymphocytic choriomeningitis virus (strain WE)
pKd: −log10 of the molar value.
Readout type: pKd

For record REPTDQKQF the listed pKd is ≤ 4.69

* * *

# Target system: HLA-B*14:02
# Assay explanation: IEDB peptide-MHC binding, purified MHC/direct/fluorescence; filed as Kd, often an IC50 or EC50 that approximates it; bounds were set here for any values at or beyond the usual limits of such assays
# Condition notes: source organism: Burkholderia mallei ATCC 23344
Readout type: Kd (nM)
Your answer is read as nM, so omit the unit and give the number.

For record MVFGRFSFA the listed Kd is 1180

* * *

# Target system: HLA-A*29:02
# Assay explanation: IEDB peptide-MHC binding, purified MHC/competitive/radioactivity; filed as Kd, often an IC50 or EC50 that approximates it; bounds were set here for any values at or beyond the usual limits of such assays
# Condition notes: source organism: Mammarenavirus brazilense
Readout type: pKd
Please note pKd is a logarithmic value: minus log10 of concentration in mol/L. Answer with that number alone.

For record ELLGYCVSLF the listed pKd is 5.03

* * *

# Target system: HLA-B*15:01
# Assay explanation: IEDB peptide-MHC binding, purified MHC/competitive/radioactivity; filed as Kd, often an IC50 or EC50 that approximates it; bounds were set here for any values at or beyond the usual limits of such assays
# Condition notes: source organism: Vaccinia virus Copenhagen
Entries and their Kd values follow.
Your answer is read as nM, so omit the unit and give the number.

For record SLNSIFNTF the listed Kd is 2.22

For record LMRSICVSI the listed Kd is 63.4

* * *

# Target system: HLA-B*57:01
# Assay explanation: IEDB peptide-MHC binding, purified MHC/competitive/fluorescence; filed as Kd, often an IC50 or EC50 that approximates it; bounds were set here for any values at or beyond the usual limits of such assays
# Condition notes: source organism: Bacillus cereus ATCC 4342
pKd: −log10 of the molar value.
Readout type: pKd

For record GLFWGGIWY the listed pKd is ≤ 4.70

* * *

# Target system: HLA-A*02:03
# Assay explanation: IEDB peptide-MHC binding, purified MHC/competitive/radioactivity; filed as Kd, often an IC50 or EC50 that approximates it; bounds were set here for any values at or beyond the usual limits of such assays
# Condition notes: source organism: Vaccinia virus WR
Readout type: pKd
Please note pKd is a logarithmic value: minus log10 of concentration in mol/L. Answer with that number alone.

Solved cases (6 shown):
>  <Macromolecule sequence>
IVCIVAAVII

>  <pKd>
5.80

$$$$
>  <Macromolecule sequence>
VMYAFTTPL

>  <pKd>
8.89

$$$$
>  <Macromolecule sequence>
STYPGNTFV

>  <pKd>
9.72

$$$$
>  <Macromolecule sequence>
FQESFYEDI

>  <pKd>
5.35

$$$$
>  <Macromolecule sequence>
YVIRHVDGKI

>  <pKd>
6.94

$$$$
>  <Macromolecule sequence>
ILATLNTLIT

>  <pKd>
7.91

$$$$

For record SLVKESMASL the listed pKd is 8.11

For record FVNFNSVKNL the listed pKd is 6.50

For record YVLFVKKML the listed pKd is 4.92

For record ITDDSDDYEL the listed pKd is 4.92

* * *

Entries and their pKd values follow.
# Target system: HLA-A*02:01
# Assay explanation: IEDB peptide-MHC binding, purified MHC/direct/fluorescence; filed as Kd, often an IC50 or EC50 that approximates it; bounds were set here for any values at or beyond the usual limits of such assays
# Condition notes: source organism: Encephalitozoon cuniculi
Please note pKd is a logarithmic value: minus log10 of concentration in mol/L. Answer with that number alone.

>  <Macromolecule sequence>
FMRSISDDA

>  <Quantitative result>
6.77

$$$$

For record KMYEYVFKG the listed pKd is 7.39

* * *

# Target system: HLA-A*01:01
# Assay explanation: IEDB peptide-MHC binding, purified MHC/competitive/radioactivity; filed as Kd, often an IC50 or EC50 that approximates it; bounds were set here for any values at or beyond the usual limits of such assays
# Condition notes: source organism: Dengue virus 1 Singapore/S275/1990
Readout type: Kd
Field note: include the unit after the figure.

For record VTARWLWGFL the listed Kd is 8.66 µM

* * *

# Target system: HLA-A*31:01
# Assay explanation: IEDB peptide-MHC binding, purified MHC/competitive/radioactivity; filed as Kd, often an IC50 or EC50 that approximates it; bounds were set here for any values at or beyond the usual limits of such assays
# Condition notes: source organism: Dengue virus 1 Brazil/97-11/1997
Readout type: Kd

>  <Macromolecule sequence>
MLVTPSMAMR

>  <Kd>
≥ 51.7 µM

$$$$

Let's switch to this sequence now.
For record LMKSLGGGR the listed Kd is ≥ 57.6 µM

* * *

# Target system: HLA-B*27:05
# Assay explanation: IEDB peptide-MHC binding, purified MHC/competitive/fluorescence; filed as Kd, often an IC50 or EC50 that approximates it; bounds were set here for any values at or beyond the usual limits of such assays
# Condition notes: source organism: Vibrio cholerae 2740-80
pKd: −log10 of the molar value.
Readout type: pKd

For record MGMEQTMSV the listed pKd is ≤ 5.30

* * *

# Target system: HLA-B*18:01
# Assay explanation: IEDB peptide-MHC binding, purified MHC/competitive/fluorescence; filed as Kd, often an IC50 or EC50 that approximates it; bounds were set here for any values at or beyond the usual limits of such assays
# Condition notes: source organism: Vibrio vulnificus
Readout type: pKd
Please note pKd is a logarithmic value: minus log10 of concentration in mol/L. Answer with that number alone.

For record DEWECTRDD the listed pKd is 7.23

* * *

# Target system: HLA-A*11:01
# Assay explanation: IEDB peptide-MHC binding, purified MHC/competitive/radioactivity; filed as Kd, often an IC50 or EC50 that approximates it; bounds were set here for any values at or beyond the usual limits of such assays
# Condition notes: source organism: SARS coronavirus ZJ0301
Readout type: pKd
Please note pKd is a logarithmic value: minus log10 of concentration in mol/L. Answer with that number alone.

For record LLNSNALLR the listed pKd is 6.65
